In this section, each of the compounds is paired with its reported growth.
Tested on: EKVX NSCLC
Experimental details: NCI-60 one-dose screen, 48 h (100 = growth as untreated, 0 = no growth, -100 = all killed)
Test settings: 10 µM unless noted
Compounds without any hit were thinned out: in the full panel of roughly 83,000, 20% have a hit.
Output spec: scalar in %, unitless text.

Cn1c(=O)c2c(nc(N3CCCC3)n2C)n(C)c1=O	98.9
CC/C(=N/NC(N)=O)c1ccccc1	91.5
Cc1ccc2oc(=O)cc(-c3sc(N4CCCCC4)nc3-c3ccccc3)c2c1	90.4
NC1=NN=C2N(N)C(=O)c3cnn(-c4ccccc4)c3N2c2nc(-c3ccccc3)cc(-c3ccccc3)c21	96.7

Prompt line: Item under review: Cc1cc(N2CCCC2)nc(N(CCNc2ccnc3cc(Cl)ccc23)Cc2ccco2)n1 . Reported growth?
Response line: 36.1

Prompt line: Could you do the same for Brc1ccc2c(c1)c(-c1nc(-c3c[nH]c4ncccc34)cs1)cn2CCCN1CCCCC1 , please?
Response line: 50.1

Prompt line: Another compound to check: N#CC1=C(N)Oc2ccc3ccccc3c2C1c1ccccc1 (centres undefined)
Response line: 39

Prompt line: Further, for COc1cccc(-c2nn(-c3ccccc3)cc2-c2ccnc(NCCCNS(=O)(=O)c3ccc(Cl)cc3)c2)c1 ?
Response line: 64

Prompt line: Input CC(C)/C=C/CC[C@](C)(O)[C@H]1CC[C@]2(C)[C@@H]1CC[C@@H]1[C@@]3(C)C/C(=C/c4cccc(C(F)(F)F)c4)C(=O)C(C)(C)[C@@H]3CC[C@]12C
Response line: 103

Prompt line: Moving on to c1cc(N2CCCC2)c2nc(-c3[nH]ncc3Nc3ncnc4[nH]ccc34)[nH]c2c1
Response line: -31

Prompt line: Note, next up: Cc1cc(Cl)nc(N(CCCNc2ccnc3cc(Cl)ccc23)Cc2ccco2)n1
Response line: 24.1

Prompt line: Next: Oc1ccc(Nc2ccccc2)cc1
Response line: 81.6

Prompt line: Could you do the same for Cn1cc(-c2nc(-c3c[nH]c4ncccc34)cs2)c2cc(Br)ccc21 , please?
Response line: 75.2

Prompt line: Subsequent entry: Nc1ccc(Br)cn1
Response line: 110

Prompt line: Also, COC(=O)[C@]12CC[C@@H](C)[C@H](C)[C@@H]1C1=CC[C@@H]3[C@@]4(C)C[C@@H](OC(C)=O)[C@H](O)[C@@](C)(CO)[C@@H]4[C@H](O)C[C@@]3(C)[C@]1(C)CC2 please.
Response line: -91.8

Prompt line: Also check C=C(C)[C@@H]1CC[C@]2(C)CC[C@]3(C)[C@H](CC[C@@H]4[C@@]5(C)CCCNC(C)(C)[C@@H]5CC[C@]43C)[C@@H]12
Response line: 103

Prompt line: Same question, Cn1cnc2c1c(=O)n(CCC(=O)Nc1ccc(F)cc1)c(=O)n2C this time
Response line: 107

Prompt line: Queued: CCSc1ncnc2c1ncn2C1OC(CO)C(O)C1O (centres undefined)
Response line: 51.8

Prompt line: Now give it for CC1(C)NCCC[C@]2(C)[C@H]3CC[C@@H]4[C@H]5[C@H](C(=O)/C=C/c6ccccn6)CC[C@]5(CO)CC[C@@]4(C)[C@]3(C)CC[C@@H]12 too.
Response line: 101

----------
Test system: MALME-3M melanoma
Experimental details: NCI-60 one-dose screen, 48 h
Test settings: 10 µM unless noted
The panel holds about 83,000 compounds, 20% with a hit somewhere; the sample as a whole holds those more often. Activity calls are given as the source filed them. How the source made its calls: active means growth percent below 10; inactive means the rest.
Please reply with one of these outcomes: true (active), false (inactive)

Worked examples, 6 compounds total:
COc1ccc(C2CC(=O)c3c(nc4ccc(Cl)cc4c3N)C2)cc1 (stereo not drawn)	false
CCc1cccc(CC)c1NC(=O)c1sc2nc3c(cc2c1N)CCCC3	false
O=[N+]([O-])c1ccc(N/N=C(\C(=N/Nc2ccc([N+](=O)[O-])cc2[N+](=O)[O-])c2ccccc2)c2ccccc2)c([N+](=O)[O-])c1	false
COc1ccc2c(c1)C(Br)=C(CCO)C2c1ccccc1 (stereo not drawn)	false
Cn1cc(-c2csc(-c3cn(CCCN4CCCCC4)c4ccccc34)n2)c2cccnc21	true
COc1ccc(-c2c(-c3nc4ccc(N5CCOCC5)cc4[nH]3)[nH]c(C)c2C(C)=O)cc1	false

Prompt line: Hi, do you know how NC(=O)NCC1CCCCC1 came out in this test?
Response line: false

Prompt line: Entry to check: C[C@@H]1CCCCCCCCC[C@H](O)C(=O)C[C@@H](SC[C@@H](O)C(=O)O)C(=O)O1
Response line: false

Prompt line: Note, next up: O=c1[nH]c2c3ccncc3cc(-c3cccc(Cl)c3)c2c2cnccc12
Response line: false

Prompt line: Same question, CCN1CCN(C(=O)[C@]23CCC(C)(C)C[C@@H]2C2=CC[C@@H]4[C@@]5(C)C/C(=C/c6cccnc6)C(=O)C(C)(C)[C@@H]5CC[C@@]4(C)[C@]2(C)CC3)CC1 this time
Response line: false
